# assaySystem: L-lactate dehydrogenase B chain (Bos taurus)
# Sequence (Q5E9B1 whole entry): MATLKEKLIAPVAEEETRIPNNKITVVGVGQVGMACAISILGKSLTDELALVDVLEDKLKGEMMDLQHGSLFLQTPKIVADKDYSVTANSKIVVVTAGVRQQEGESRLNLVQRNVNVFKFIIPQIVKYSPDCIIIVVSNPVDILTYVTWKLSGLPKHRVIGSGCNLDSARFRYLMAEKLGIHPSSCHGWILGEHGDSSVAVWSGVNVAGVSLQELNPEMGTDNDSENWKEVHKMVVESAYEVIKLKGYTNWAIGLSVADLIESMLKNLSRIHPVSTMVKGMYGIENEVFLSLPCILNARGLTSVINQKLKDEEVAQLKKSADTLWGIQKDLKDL
testReadout: IC50

Here are 3 compounds together with their reported answers.
[
  {
    "compound": "O=C(O)C(=O)NCc1cccc2ccccc12 [Oxamic Acid/Ester, 17]",
    "testReadout": "IC50",
    "observedValue": "> 200 µM"
  },
  {
    "compound": "C=CCN(C(=O)C(=O)O)C1CCCCC1 [Oxamic Acid/Ester, 29]",
    "testReadout": "IC50",
    "observedValue": "> 200 µM"
  },
  {
    "compound": "CC(NC(=O)C(=O)O)c1cccc2c1CCCC2 (centres undefined) [Oxamic Acid/Ester, 38]",
    "testReadout": "IC50",
    "observedValue": "> 200 µM"
  }
]

# returns recorded IC50 (system: L-lactate dehydrogenase B chain (Bos taurus)) for O=C(O)C(=O)NCCc1ccc(Br)cc1 [Oxamic Acid/Ester, 42]
> 200 µM

---

# assaySystem: L-lactate dehydrogenase (Plasmodium falciparum)
# Sequence (B9UDZ5 whole entry): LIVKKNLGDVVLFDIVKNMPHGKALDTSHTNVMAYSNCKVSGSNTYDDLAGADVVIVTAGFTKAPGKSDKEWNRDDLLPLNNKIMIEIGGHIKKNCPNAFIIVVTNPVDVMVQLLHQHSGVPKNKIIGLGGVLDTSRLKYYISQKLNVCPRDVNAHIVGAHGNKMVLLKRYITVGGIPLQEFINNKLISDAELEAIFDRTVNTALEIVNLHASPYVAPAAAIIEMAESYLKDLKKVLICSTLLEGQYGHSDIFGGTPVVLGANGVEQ
# testDescription: Enzyme Assay
testReadout: IC50

Here are 3 molecules together with their reported answers.
[
  {
    "molecule": "COc1ccccc1NC(=O)C(=O)O [Oxamic Acid/Ester, 6]",
    "assaySystem": "L-lactate dehydrogenase (Plasmodium falciparum)",
    "IC50": "> 200 µM"
  },
  {
    "molecule": "CN(Cc1ccccc1)C(=O)C(=O)O [Oxamic Acid/Ester, 30]",
    "assaySystem": "L-lactate dehydrogenase (Plasmodium falciparum)",
    "IC50": "> 200 µM"
  },
  {
    "molecule": "CCc1ccccc1N(Cc1ccccc1)C(=O)C(=O)O [Oxamic Acid/Ester, 8]",
    "assaySystem": "L-lactate dehydrogenase (Plasmodium falciparum)",
    "IC50": "> 200 µM"
  }
]

# returns recorded IC50 (system: L-lactate dehydrogenase (Plasmodium falciparum)) for O=C(O)C(=O)N(Cc1ccccc1)Cc1ccccc1 [Oxamic Acid/Ester, 32]
> 200 µM

# returns recorded IC50 (system: L-lactate dehydrogenase (Plasmodium falciparum)) for CCCCCN(C)C(=O)C(=O)O [Oxamic Acid/Ester, 28]
> 200 µM

# returns recorded IC50 (system: L-lactate dehydrogenase (Plasmodium falciparum)) for COCCNC(=O)C(=O)O [Oxamic Acid/Ester, 21]
14 µM

# returns recorded IC50 (system: L-lactate dehydrogenase (Plasmodium falciparum)) for O=C(O)C(=O)N(Cc1ccccc1)c1ccccc1 [Oxamic Acid/Ester, 22]
> 200 µM

# returns recorded IC50 (system: L-lactate dehydrogenase (Plasmodium falciparum)) for COCCCNC(=O)C(=O)O [Oxamic Acid/Ester, 25]
43 µM

# returns recorded IC50 (system: L-lactate dehydrogenase (Plasmodium falciparum)) for O=C(O)C(=O)NCCC(c1ccccc1)c1ccccc1 [Oxamic Acid/Ester, 36]
35 µM

# returns recorded IC50 (system: L-lactate dehydrogenase (Plasmodium falciparum)) for CCC(C)NC(=O)C(=O)O (stereo not given) [Oxamic Acid/Ester, 31]
> 200 µM
